Species on record: Rattus norvegicus
Test: Open TG-GATES - Regimen: Single
Format: toxicity, organism-based, Sprague-Dawley
Design: regimen Single, gender Male, age 6 weeks
Conditions: in vivo, po, 0 mg/kg, 9 h, tissue Plasma, route gavage, dose level Control
assay endpoint: TBIL
Phrase the answer as number then unit, nothing more needed.

// recorded TBIL for `COc1cc2ncnc(Nc3ccc(F)c(Cl)c3)c2cc1OCCCN1CCOCC1` : 0.022 mg/dL

// recorded TBIL for `COc1ccc([C@@H]2Sc3ccccc3N(CCN(C)C)C(=O)[C@@H]2OC(C)=O)cc1` : 0.038 mg/dL

// recorded TBIL for `CCO` : 0.4 mg/dL

// recorded TBIL for CN(CCOc1ccc(CC2SC(=O)NC2=O)cc1)c1ccccn1.O=C(O)/C=C\C(=O)O (configuration not stated) [ROSIGLITAZONE MALEATE] : 0.046 mg/dL

// recorded TBIL for `CN(C/C=C/C#CC(C)(C)C)Cc1cccc2ccccc12` : 0.1 mg/dL

// recorded TBIL for `CCN(CC)C(=S)SSC(=S)N(CC)CC` : 0.008 mg/dL

// recorded TBIL for `CC(=O)[C@@]1(O)CC[C@H]2[C@@H]3C=C(Cl)C4=CC(=O)CC[C@]4(C)[C@H]3CC[C@@]21C` : 0.02 mg/dL

The reported measurements were obtained from ChEMBL document CHEMBL3885861.
